Value source: paper PMC3315326

- TARGET_OR_TEST_SYSTEM: DNMT1 (UniProt P26358 1-1616)
- Sequence (P26358 whole entry): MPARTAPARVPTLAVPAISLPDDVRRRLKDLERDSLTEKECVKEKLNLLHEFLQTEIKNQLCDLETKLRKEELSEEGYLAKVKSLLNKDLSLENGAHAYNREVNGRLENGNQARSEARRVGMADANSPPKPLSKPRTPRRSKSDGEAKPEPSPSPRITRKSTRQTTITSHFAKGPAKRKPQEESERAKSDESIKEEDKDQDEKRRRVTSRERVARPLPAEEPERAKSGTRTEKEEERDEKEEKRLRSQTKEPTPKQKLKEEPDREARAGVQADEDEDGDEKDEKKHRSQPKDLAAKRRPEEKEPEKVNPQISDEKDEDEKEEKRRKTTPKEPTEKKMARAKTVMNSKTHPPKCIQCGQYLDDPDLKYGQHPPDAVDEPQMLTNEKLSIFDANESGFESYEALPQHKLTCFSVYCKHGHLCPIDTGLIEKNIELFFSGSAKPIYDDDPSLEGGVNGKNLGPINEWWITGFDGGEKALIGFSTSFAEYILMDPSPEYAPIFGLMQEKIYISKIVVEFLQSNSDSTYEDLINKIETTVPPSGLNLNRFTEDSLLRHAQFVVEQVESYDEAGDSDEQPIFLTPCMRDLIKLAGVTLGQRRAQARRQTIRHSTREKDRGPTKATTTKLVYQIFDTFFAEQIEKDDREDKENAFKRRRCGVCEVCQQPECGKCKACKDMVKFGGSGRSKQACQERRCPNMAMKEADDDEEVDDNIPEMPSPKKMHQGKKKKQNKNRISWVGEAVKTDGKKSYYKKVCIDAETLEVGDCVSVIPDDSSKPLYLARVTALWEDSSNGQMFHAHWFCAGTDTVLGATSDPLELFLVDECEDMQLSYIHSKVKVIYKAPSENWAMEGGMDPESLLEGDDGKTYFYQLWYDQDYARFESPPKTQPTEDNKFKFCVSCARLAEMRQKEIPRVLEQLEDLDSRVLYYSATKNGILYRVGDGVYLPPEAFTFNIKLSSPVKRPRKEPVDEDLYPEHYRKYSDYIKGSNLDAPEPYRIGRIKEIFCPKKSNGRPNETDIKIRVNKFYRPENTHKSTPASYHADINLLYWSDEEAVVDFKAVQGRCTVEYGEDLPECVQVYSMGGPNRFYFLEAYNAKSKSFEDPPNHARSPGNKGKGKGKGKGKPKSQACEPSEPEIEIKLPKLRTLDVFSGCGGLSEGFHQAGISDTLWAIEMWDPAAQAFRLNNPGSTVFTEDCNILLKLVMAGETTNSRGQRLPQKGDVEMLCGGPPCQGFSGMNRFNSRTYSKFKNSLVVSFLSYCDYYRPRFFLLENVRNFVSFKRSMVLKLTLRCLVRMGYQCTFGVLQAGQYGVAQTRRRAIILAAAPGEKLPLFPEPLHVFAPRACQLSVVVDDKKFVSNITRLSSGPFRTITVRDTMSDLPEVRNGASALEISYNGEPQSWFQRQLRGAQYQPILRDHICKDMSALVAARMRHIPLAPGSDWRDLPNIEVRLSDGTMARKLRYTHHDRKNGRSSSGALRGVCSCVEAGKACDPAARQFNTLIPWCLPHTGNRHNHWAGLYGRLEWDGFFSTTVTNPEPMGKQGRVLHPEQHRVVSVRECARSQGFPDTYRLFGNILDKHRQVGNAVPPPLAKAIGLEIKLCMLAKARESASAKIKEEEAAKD
- MEASUREMENT_PROTOCOL: SPR
pKd: −log10 of the molar value.

# BINDER, pKd
rows = [
    ("hemimethylated 30-bp oligo (D1subHMF/D1subUMF) (dsDNA, 5-methylcytosine at position 15 of strand 1) DNA 1: GAAGCTGGGACTTCCGGCAGGAGAGTGCAA DNA 2: TTGCACTCTCCTGCCGGAAGTCCCAGCTTC", 5.97),
]
